# Test system: K4 kissing-loop RNA reporter
# method summary: apparent KD of K4 kissing-loop reporter; higher = weaker reporter binding
# test conditions: Eterna round: R107; input ligand: FMN 200 uM
Records here are stratified by apparent KD of K4 kissing-loop reporter; strata: low (below 200 nM), moderate (200 nM to below 400 nM), high (400 nM or more)

Some entries whose results are on file:
sequence text: GUAGGAUGAGGAGGAGGAUGAAUUACUGAAGGAGCGCAUAGAAAUGCAGGUAGGUCGCGGUAAAGAAGUAUAGUGAUGUUAUAUA [SSArgA.F]
category: high
//
sequence text: AGUGAUGUGGGAAGGAGCGGUAGAUGAGUUCAGUGAUGUUGAAGUGAUGCUGUAGUGAUGUGCCAGGUAGGUCGCCUAGAUGUUA [KL-XARG B24]
category: moderate
//
sequence text: UCAUAUACCAGAAGGAGCGUGCAGGACGAAUUAAUCAUCGACCUUAGUGAUGUUAAGGACGCACAGGUAGGUCGCUGGUAUAUGA [Arg B SS t4]
category: high
//
sequence text: CAUACGCAUGGAGGAUAUGAGAUUUUUCAUAUUACUUUUUAUUCUCAGUGAUGUUGGGAUUUGUAAUCAGAAGGCCAUGUGUAUG [#10 K4 FMN B Exclusion]
category: low
//
sequence text: GGCCGCAAGGCGGGCCGGCCCACUCCGGAAGGAGCGCCCGCAAGGGCAGGUAGGUCGCCGGAGUGAUGUUCCGGUGGCCGGCCCG [#2 Exclusion - Arginine A Attempt #2 (Inspired by Omei)]
category: low
//
sequence text: UGAUUUAACUGAAGGAGCGGCAAUUGAUAAGUAAAUAUAGUGAUGUUAUAUAAGAUAGAGAGCCAGGUAGGUCGCAGAGGGAGGA [ExArgB.J]
category: low
//
sequence text: ACUUGCACAAAGUCGUCAACCGGUGAAUCAAAGGAUAUUAAUUCACUAAGAAGGUUGAGCCGAGUGAUGUUCGACUGUAAGUCCC [theeternabot_exclusion_KL_FMN_A_34]
category: high
//
sequence text: GCAGUGAUGUUGCGCGGGUACAGUGGAGUGCGAGGACCGGUACGGCCGCCACUCGUACAGAACUGGCUAAUAUAUGGAUAGGUGA [VII]
category: moderate

Req: Please indicate the class for UAGUCAUACAGAGGAUAUCGUAUGAGUGAUGUUCAAGUGCGUACAUCAACUUGAUGUACAGAUAGACGAGAAGGCUGUAUGACUA [FMB B SS t6] based on its apparent KD of K4 kissing-loop reporter.
Resp: moderate

Req: Please indicate the class for UGUUUUUUUUUGAUGUUUGUUGUAAAAUGGCAGGAUAUCGUAGAGGCGAGAAGGGCUUUUAUGCGUUAUGAGUGAUGUUUGUAGG [vevvmullin] based on its apparent KD of K4 kissing-loop reporter.
Resp: high

====

# Test system: K4 kissing-loop RNA reporter;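 also: bound reporter read as fluorescence of individual clusters on recovered sequencing chips by microscopy, with normalized cluster intensities fitted with a binding model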
# method summary: apparent KD of K4 kissing-loop reporter; higher = weaker reporter binding
# test conditions: Eterna round: R107; input ligand: tryptophan 2.4 mM
# key: entry, value: apparent KD of K4 kissing-loop reporter
Enter your answer as a number in nM; do not include the unit.

These recorded examples may help you get a feel for the data.
sequence text: GCGUUCAUGGCAGGAUAUAGGUAAAGGAGUGAUGUUCCUUAUGUUGCAUUUACUUAAUCCAACUCCCUAGAAGGGCCAUGAACGC
apparent KD of K4 kissing-loop reporter [nM]: 146
--
sequence text: CUAUCCCGCCGUGUAUGUAGUAUACGGUGCCGAGGACCGGUACGGCCGCCACUCGAUAAGCUUUGUCGGAGUGAUGUUCCGACCG [Soleesen]
apparent KD of K4 kissing-loop reporter [nM]: 265
--
sequence text: GCCGUAGAUUGAAGGAGCGAGUAGGCUCACUUGCGAAGUGAAUAGCAGAGUGAUGUUCUGUCUCAGGUAGGUCGCAAUCUACGGC
apparent KD of K4 kissing-loop reporter [nM]: 397
--
sequence text: CGCUCGAAAAUUAAGUGAGUGAUGUUCACUCGAGGACCGGUACGGCCGCCACUCGUCUUACGUUGAGACACUGCUCGUACUCAUA [theeternabot_exclusion_KL_Trp_A_38]
apparent KD of K4 kissing-loop reporter [nM]: 498
--
sequence text: GGUAGCAUGGCGGCCGCCACUAGAUCAGUGAUGUUGAUCCCGCCGUCUUACGGCGAGUCAGAGGCUAGGACCGGGCCAUGCUACC
apparent KD of K4 kissing-loop reporter [nM]: 963

// moving on: another record for apparent KD of K4 kissing-loop reporter
Lab note: measured apparent KD of K4 kissing-loop reporter of AGGAGCGUGGGAUGGAAAUCGCACGCUCCUCGAGGACCGGUACGGCCGCCACUCGCUCGCGCCGAGUGAUGUUCGGCCGGCGAAG [#2 Same State - Tryptophan A Attempt #15 (HarryS)] was 226
